Measured inhibition of individual entries
target: Nuclear receptor coactivator 2 (Homo sapiens); experiment: SRC2 coactivator transcriptional activity inhibitors, confirmation, cell-based, luminescence, HEK293, triplicate (AID 652008); details: HEK293 GAL4-SRC2 luciferase reporter, at 8.9 µM, active compounds read high;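 note: 0% = DMSO-treated cells and 100% = Gossypol at 36 µM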

>  <COMPOUND>
Cc1cccc(Nc2nc(N)nc(CCl)n2)c1C

>  <UNIT>
%

>  <inhibition>
55.7

$$$$
>  <COMPOUND>
Cc1ccc(-n2nc3c(=O)n(C(C)C(=O)NCCC4=CCCCC4)nc(C)c3c2C)cc1 (configuration not stated)

>  <UNIT>
%

>  <inhibition>
29.1

$$$$
>  <COMPOUND>
COc1ccc(-c2nnc(SCc3cccc(F)c3)n2-c2ccccc2)cc1

>  <UNIT>
%

>  <inhibition>
-7.06

$$$$
>  <COMPOUND>
O=S(=O)(c1ccc(NC(=S)NCc2cccnc2)cc1)N1CCCCC1

>  <UNIT>
%

>  <inhibition>
50.2

$$$$
>  <COMPOUND>
Cc1ccc(N(C(=O)c2ccc3c(c2)OCO3)C2C=CS(=O)(=O)C2)cc1C (configuration not stated)

>  <UNIT>
%

>  <inhibition>
-17.6

$$$$
>  <COMPOUND>
O=C(N/N=C\c1ccc([N+](=O)[O-])o1)C1COc2ccccc2O1 (configuration not stated)

>  <UNIT>
%

>  <inhibition>
51.5

$$$$
>  <COMPOUND>
O=C(CCl)Nc1ccc(Oc2cnc3ccccc3n2)cc1

>  <UNIT>
%

>  <inhibition>
46.6

$$$$
>  <COMPOUND>
O=C(Cc1coc2cc3c(cc12)CCC3)OCC(=O)N1CCCC1=O

>  <UNIT>
%

>  <inhibition>
38.7

$$$$
>  <COMPOUND>
Cc1ccc(/C=C2\SC(=S)N(CCCC(=O)Nc3ccccc3C(=O)O)C2=O)cc1

>  <UNIT>
%

>  <inhibition>
59.4

$$$$
>  <COMPOUND>
COC(=O)C1CN(Cc2ccccc2)CCS(=O)(=O)N1Cc1cn(Cc2ccc(Cl)cc2)nn1 (configuration not stated)

>  <UNIT>
%

>  <inhibition>
-3.09

$$$$
>  <COMPOUND>
CCOc1ccccc1OCCCCOc1ccccc1F

>  <UNIT>
%

>  <inhibition>
-12.6

$$$$
>  <COMPOUND>
COc1ccc(-c2nc(-c3ccccc3)no2)c(OC)c1

>  <UNIT>
%

>  <inhibition>
53.8

$$$$
>  <COMPOUND>
C=CC(=O)N1C/C(=C/c2ccc(Cl)cc2)C(=O)/C(=C\c2ccc(Cl)cc2)C1

>  <UNIT>
%

>  <inhibition>
88.4

$$$$
>  <COMPOUND>
O=C(CCCN1C(=O)/C(=C/c2cccc(Br)c2)SC1=S)NCCCN1CCOCC1

>  <UNIT>
%

>  <inhibition>
10.6

$$$$
>  <COMPOUND>
CCOc1ccc(NC(=S)C(C#N)=C2N(C)c3ccccc3N2C)cc1

>  <UNIT>
%

>  <inhibition>
-15.8

$$$$
>  <COMPOUND>
Cc1ccc(C(=O)Nc2ccc3ccccc3c2)cc1

>  <UNIT>
%

>  <inhibition>
12.1

$$$$
>  <COMPOUND>
O=C(OCC12CC3CC(CC(C3)C1)C2)c1ccc(NCc2cc(O)ccc2O)cc1

>  <UNIT>
%

>  <inhibition>
96.5

$$$$
>  <COMPOUND>
O=C(CCCN1C(=O)/C(=C/c2ccccc2Cl)SC1=S)NNC(=O)c1ccc(Cl)cc1Cl

>  <UNIT>
%

>  <inhibition>
92.4

$$$$
>  <COMPOUND>
Oc1ccc(N=Nc2ccc3c(c2)OCCO3)c2ncccc12

>  <UNIT>
%

>  <inhibition>
13.6

$$$$
>  <COMPOUND>
O=[N+]([O-])c1ccc(Sc2nccn2Cc2ccccc2)c([N+](=O)[O-])c1

>  <UNIT>
%

>  <inhibition>
32.1

$$$$
>  <COMPOUND>
CCOn1c(=O)c[n+]([O-])c2ccccc21

>  <UNIT>
%

>  <inhibition>
-6.65

$$$$
>  <COMPOUND>
CCCS(=O)(=O)c1cnc(C2COc3ccccc3O2)nc1N (configuration not stated)

>  <UNIT>
%

>  <inhibition>
75

$$$$
